- SYSTEM: aggrecanase-1 (Homo sapiens)
- Sequence (O75173 213-837, species assumed): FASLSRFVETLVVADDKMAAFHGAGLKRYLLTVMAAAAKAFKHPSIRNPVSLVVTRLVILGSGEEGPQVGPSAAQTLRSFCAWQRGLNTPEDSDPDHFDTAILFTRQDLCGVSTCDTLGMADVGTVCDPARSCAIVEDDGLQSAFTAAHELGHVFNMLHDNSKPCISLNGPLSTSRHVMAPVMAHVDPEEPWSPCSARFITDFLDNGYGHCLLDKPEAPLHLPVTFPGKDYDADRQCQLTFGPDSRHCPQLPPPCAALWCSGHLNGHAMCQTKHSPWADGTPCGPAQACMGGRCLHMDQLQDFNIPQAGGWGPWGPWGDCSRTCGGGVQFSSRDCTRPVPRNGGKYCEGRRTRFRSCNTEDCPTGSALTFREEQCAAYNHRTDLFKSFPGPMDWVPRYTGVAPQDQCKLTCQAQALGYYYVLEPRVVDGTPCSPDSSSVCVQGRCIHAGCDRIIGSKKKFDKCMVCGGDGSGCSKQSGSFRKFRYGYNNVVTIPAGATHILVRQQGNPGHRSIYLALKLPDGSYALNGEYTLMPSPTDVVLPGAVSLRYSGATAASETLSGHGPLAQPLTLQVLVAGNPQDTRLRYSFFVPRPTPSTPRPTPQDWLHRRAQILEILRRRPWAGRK
- ASSAY_NAME: Aggrecanase-1 inhibitory action (Particle Assay, GAG release from aggrecan-containing polyacrylamide particles)
- Assay type: biochemical
- EXPERIMENTAL_CONDITIONS: Experimental Example 1; read-out: IC50 AG1
pIC50: −log10 of the molar value.
OUTCOME_MEASURE: pIC50

{"columns": ["COMPOUND", "pIC50"],
 "data": [
  ["COc1cnn(-c2ccc(S(=O)(=O)N[C@@]3(C(=O)O)C(C)[C@@H]3c3ccccc3)s2)c1 (stereo partly shown)", "> 7.00"],
  ["CC1C(c2ccccc2)C1(NS(=O)(=O)c1ccc(-c2cccc(CO)c2)s1)C(=O)O (stereo not shown)", "> 7.00"],
  ["O=C(O)C1(NS(=O)(=O)c2cn3cc(-c4ccc(Cl)cc4)nc3s2)CC1c1ccccc1 (stereo not shown)", "≤ 6.00"],
  ["C[C@]1(c2ccccc2)C[C@@]1(NS(=O)(=O)c1ccc(-c2ccc(CO)cc2)s1)C(=O)O", "> 6.00"]
]}

Each compound below has a reported value. Please supply its pIC50.
1. C[C@]1(c2cccc(F)c2)C[C@@]1(NS(=O)(=O)c1ccc(-c2cc(C(F)(F)F)on2)s1)C(=O)O
2. O=C(O)C1(NS(=O)(=O)c2ccc(-c3cc(C(F)(F)F)on3)s2)C2CCC(O)c3ccccc3C21 (stereo not shown) [Example 2-437]
3. CC1C(c2ccccc2)C1(NS(=O)(=O)c1ccc(-c2cccc(O)c2)s1)C(=O)O (stereo not shown)

Reply:
> 7.00
> 7.00
> 6.00

---

- SYSTEM: Recombinant Human MMP-13 (Homo sapiens)
- Construct: purchased R&D systems 511-MM
- ASSAY_NAME: MMP-13 inhibitory activity (MMP-13 specific fluorescent substrate with quencher)
- Type: biochemical
- EXPERIMENTAL_CONDITIONS: Recombinant Human MMP-13, fluorescent substrate, 25° C. for 1 h; read-out: IC50 MMP13 (Experimental Example 3)
For each record, write down the corresponding IC50.

Below: 10 compounds and their reported IC50.
{"columns": ["COMPOUND", "MEASURED"],
 "data": [
  ["O=C(CCc1cccc(C2CC2(NS(=O)(=O)c2ccc(-c3ccc(Cl)cc3)s2)C(=O)O)c1)N1CCSCC1 (stereo not drawn)", "< 100 nM"],
  ["O=C(O)C1(NS(=O)(=O)c2ccc(-c3ccc(Cl)cc3)s2)CC1c1ccccc1CN1CCOCC1 (stereo not drawn)", "< 1000 nM"],
  ["O=C(O)C1(NS(=O)(=O)c2ccc(-c3ccc(Cl)cc3)s2)CC1c1cccc(OCc2cccnc2)c1 (stereo not drawn)", "< 100 nM"],
  ["O=C(O)C1(NS(=O)(=O)c2ccc(-c3ccc(Cl)cc3)s2)CC1c1ccccc1OCCO (stereo not drawn)", "< 1000 nM"],
  ["Cc1cc(-c2ccc(S(=O)(=O)N[C@@]3(C(=O)O)C[C@@H]3c3ccccc3)s2)no1", "< 100 nM"],
  ["O=C(O)C1(NS(=O)(=O)c2ccc(-c3ccc(Cl)cc3)cc2)CC1c1cccc(Oc2ccccc2)c1 (stereo not drawn)", "< 1000 nM"],
  ["CN1CCN(c2ccc(C3CC3(NS(=O)(=O)c3ccc(-c4ccc(Cl)cc4)s3)C(=O)O)cc2)CC1 (stereo not drawn) [Example 2-247]", "≥ 10000 nM"],
  ["CC(C)(O)COc1cccc(C2CC2(NS(=O)(=O)c2ccc(-c3ccc(Cl)cc3)s2)C(=O)O)c1 (stereo not drawn)", "< 100 nM"],
  ["O=C(Nc1cccc(C2CC2(NS(=O)(=O)c2ccc(-c3ccc(Cl)cc3)cc2)C(=O)O)c1)c1ccncc1 (stereo not drawn)", "< 100 nM"],
  ["O=C(O)[C@]1(NS(=O)(=O)c2ccc(-c3cc(C(F)F)sn3)s2)C[C@@H]1c1ccccc1", "< 100 nM"]
]}

Provide IC50 for all items below, preserving their order.
1. Cn1nc(C(F)(F)F)cc1-c1ccc(S(=O)(=O)NC2(C(=O)O)CC2c2ccccc2)s1 (stereo not drawn)
2. O=C(O)[C@@]1(NS(=O)(=O)c2ccc(-c3ccc(Cl)cc3)s2)C[C@H]1c1ccccc1Br

Reply:
1: ≥ 10000 nM; 2: ≥ 1000 nM
